target: Ephrin type-A receptor 7 (Mus musculus, UniProt Q61772); assay: Displacement of biotinylated ephrin-A1-Fc from mouse EphA7 Fc preincubated for 1 hr followed by ephrin-A1-FC addition and measured after 4 hrs by ELISA
Sequence (Q61772 whole entry): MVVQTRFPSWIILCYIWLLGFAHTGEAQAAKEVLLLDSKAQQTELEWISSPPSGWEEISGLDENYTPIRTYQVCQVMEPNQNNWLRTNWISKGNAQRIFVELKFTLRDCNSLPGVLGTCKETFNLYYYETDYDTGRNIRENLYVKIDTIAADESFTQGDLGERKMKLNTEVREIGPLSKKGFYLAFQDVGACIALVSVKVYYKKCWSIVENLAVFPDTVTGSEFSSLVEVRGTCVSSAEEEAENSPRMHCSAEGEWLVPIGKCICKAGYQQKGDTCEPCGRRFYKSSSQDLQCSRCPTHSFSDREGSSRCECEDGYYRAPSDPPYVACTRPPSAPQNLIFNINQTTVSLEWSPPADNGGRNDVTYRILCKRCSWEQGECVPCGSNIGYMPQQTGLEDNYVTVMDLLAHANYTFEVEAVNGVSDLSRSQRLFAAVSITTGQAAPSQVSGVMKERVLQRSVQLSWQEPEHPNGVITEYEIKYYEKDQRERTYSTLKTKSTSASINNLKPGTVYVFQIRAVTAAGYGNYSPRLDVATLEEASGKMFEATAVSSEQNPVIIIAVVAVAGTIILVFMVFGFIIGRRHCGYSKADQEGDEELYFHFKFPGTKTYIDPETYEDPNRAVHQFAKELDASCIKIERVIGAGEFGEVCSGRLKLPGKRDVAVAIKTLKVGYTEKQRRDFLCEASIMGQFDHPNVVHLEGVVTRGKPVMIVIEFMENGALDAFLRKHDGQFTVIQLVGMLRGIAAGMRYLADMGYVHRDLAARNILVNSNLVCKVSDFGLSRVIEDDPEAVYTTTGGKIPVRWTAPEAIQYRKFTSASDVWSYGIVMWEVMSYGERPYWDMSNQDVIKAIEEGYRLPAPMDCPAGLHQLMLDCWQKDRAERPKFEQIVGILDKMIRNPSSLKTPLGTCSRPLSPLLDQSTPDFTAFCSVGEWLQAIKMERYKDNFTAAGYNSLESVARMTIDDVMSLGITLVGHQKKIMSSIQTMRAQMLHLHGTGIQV
pIC50: −log10 of the molar value.
propertyLabel: pIC50

Report pIC50 for `CCNC(=O)O[C@@H]1CC[C@@]2(C)[C@H](CC[C@@H]3[C@@H]2CC[C@]2(C)[C@@H]([C@H](C)CCC(=O)N[C@H](CC(=O)O)Cc4c[nH]c5ccccc45)CC[C@@H]32)C1`
< 4.52
